System: HSC-39 (Gastric Carcinoma)
Assay: combination Emax (second highest fraction inhibited in the dose matrix, 72 h); higher = more inhibition; extreme values may be limits of the assay
Metric Name: combination Emax

# Molecule, Measured Result
measured = [
    ("COc1nnc2ccc(N3CCC(c4ccc(OCCN5CCN(C)C(=O)[C@H]5C)cc4)CC3)nn12 [AZD5153] + Cc1c2c(nn1C)CSCc1cc(n(C)n1)CSc1cc(c3ccccc3c1)OCCCc1c(C(=O)O)n(C)c3c-2c(Cl)ccc13 [AZD5991] (first compound max 1 µM, 7x7, partner max 1 µM)", 1),
    ("COc1nnc2ccc(N3CCC(c4ccc(OCCN5CCN(C)C(=O)[C@H]5C)cc4)CC3)nn12 [AZD5153] + C=CCn1c(=O)c2cnc(Nc3ccc(N4CCN(C)CC4)cc3)nc2n1-c1cccc(C(C)(C)O)n1 [AZD1775] (first compound max 1 µM, partner max 1 µM)", 0.967),
    ("CN(CCO)CC[C@H](CSc1ccccc1)Nc1ccc(S(=O)(=O)NC(=O)c2ccc(N3CCC([C@@H](O)c4ccccc4-c4ccc(Cl)cc4)CC3)cc2)cc1S(=O)(=O)C(F)(F)F [AZD4320] + C[C@@H]1COCCN1C2=NC(=NC(=C2)C3(CC3)[S@](=N)(=O)C)C4=C5C=CNC5=NC=C4 [AZD6738] (first compound max 1 µM, 7x7, partner max 10 µM)", 1),
    ("CC1(C)CCC(CN2CCN(c3ccc(C(=O)NS(=O)(=O)c4ccc(NCC5CCOCC5)c([N+](=O)[O-])c4)c(Oc4cnc5[nH]ccc5c4)c3)CC2)=C(c2ccc(Cl)cc2)C1 [Venetoclax] + C[C@@H](Nc1cc(F)cc(F)c1)c1cc(C(=O)N(C)C)cc2c(=O)cc(N3CCOCC3)oc12 [AZD8186] (first compound max 1 µM, 7x7, partner max 3 µM)", 0.972),
    ("COc1cccc(OCCCN)c1-c1cc(Nc2cnc(C#N)cn2)n[nH]1 [Prexasertib] + C=CCn1c(=O)c2cnc(Nc3ccc(N4CCN(C)CC4)cc3)nc2n1-c1cccc(C(C)(C)O)n1 [AZD1775] (first compound max 1 µM, partner max 1 µM)", 1),
    ("CCN(CCO)CCCOc1ccc2c(Nc3cc(CC(=O)Nc4cccc(F)c4)[nH]n3)ncnc2c1 [AZD2811] + O=C(c1cc(Cc2n[nH]c(=O)c3ccccc23)ccc1F)N1CCN(C(=O)C2CC2)CC1 [Olaparib] (first compound max 1 µM, 7x7, partner max 10 µM)", 0.985),
]
